Source listed as PubChem BioAssay (NCI).

- Test system: HS 578T breast
- ASSAY COMMENT: NCI-60 one-dose screen, 48 h (100 = growth as untreated, 0 = no growth, -100 = all killed)
- DETAILS: 10 µM unless noted
The panel holds about 83,000 compounds, 20% with a hit somewhere; the sample as a whole holds those more often.
Criterion: growth strictly less than 70%. Met: 1.0. Not met: 0.0.

Qu. Lab note: confirm whether the reported growth for this compound is below 70%, equality not counting. compound: `Cc1ccc(CNc2ccc3nc(CCC4CCCCC4)[nH]c3c2)cc1`
Ans. 1.0

Qu. Lab note: confirm whether the reported growth for this compound is below 70%, equality not counting. compound: `CCCc1c(OC(=O)c2ccccc2)nc2[nH]c(=O)sc2c1C`
Ans. 0.0

Qu. Lab note: confirm whether the reported growth for this compound is below 70%, equality not counting. compound: `Cn1ccnc1C(=O)/C=C/c1ccc(CC(=O)Nc2cc(C(F)(F)F)cc(C(F)(F)F)c2)cc1`
Ans. 1.0

Qu. Lab note: confirm whether the reported growth for this compound is below 70%, equality not counting. compound: `c1ccc2cc(C[n+]3ccn(CCCCCCCCCCn4cc[n+](Cc5ccc6ccccc6c5)c4)c3)ccc2c1`
Ans. 1.0

Qu. Lab note: confirm whether the reported growth for this compound is below 70%, equality not counting. compound: `CC1=C2[C@@H](CC1)[C@]1(C)O[C@@](C(C)C)(C[C@H]1OC(=O)[C@H](C)O)[C@H]2OC(=O)/C=C/c1ccccc1`
Ans. 1.0

Qu. Lab note: confirm whether the reported growth for this compound is below 70%, equality not counting. compound: COc1ccc(C2=Nc3c(N)nc(N)nc3NC(c3cccc(Nc4ccnc5cc(C(F)(F)F)ccc45)c3)C2)cc1 (centres undefined)
Ans. 1.0

Qu. Lab note: confirm whether the reported growth for this compound is below 70%, equality not counting. compound: `COc1ccc(C/C(C)=C(/c2ccc(OCCN(C)C)cc2)c2ccc(OC(=O)NCc3ccccc3)cc2)cc1`
Ans. 1.0

Qu. Lab note: confirm whether the reported growth for this compound is below 70%, equality not counting. compound: `Cc1csc(Nc2nc(-c3ccccn3)nc(C(Cl)(Cl)Cl)n2)n1`
Ans. 0.0

Qu. Lab note: confirm whether the reported growth for this compound is below 70%, equality not counting. compound: `Cc1cc(S(=O)(=O)/N=C(\N)n2nc(C)c(C)c2C)c(SCc2ccccc2)cc1Cl`
Ans. 0.0
